Catalogue of binders with associated kon
ASSAYED TARGET: T1, recombinant human CD3 epsilon/gamma heterodimer (human, UniProt P07766 23-126; P09693 23-116)
T1 construct: Recombinant protein in solution (200-50 nM) in the Octet assay; also called hCD3 E/G
T1 sequence (P07766 23-126, chain 1 of 2): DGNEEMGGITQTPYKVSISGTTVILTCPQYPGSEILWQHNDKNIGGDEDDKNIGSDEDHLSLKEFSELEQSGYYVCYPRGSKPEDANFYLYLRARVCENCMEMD
T1 sequence (P09693 23-116, chain 2 of 2): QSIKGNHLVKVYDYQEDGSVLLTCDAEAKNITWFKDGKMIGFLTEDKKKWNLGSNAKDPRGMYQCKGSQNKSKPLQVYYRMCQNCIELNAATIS
MEASUREMENT DESCRIPTION: Octet BLI, mAb on FAB2G sensor, hCD3 E/G 200-50 nM; R^2 0.98
State the value with its unit after it.

INSERT INTO measurements (binder, reported_result) VALUES
  ('ABL-CD3-38 (antibody, V domains shown, Chimeric hybridoma mAb: human V, CH1, upper hinge; mouse middle hinge, CH2, CH3) VH: QGQLQQWGAGLLKPSETLSLTCAVYGGSFSGYYWSWIRLPPGKGLEWIGEINHSGNTNYNPSLKSRVTISVDTSKNQFSLQLSSVTAADTAVYYCAKEVEIWGYFDYWGQGTLVTVSS VL: QSVLTQPPSVSGAPGQRVTISCTGSSSNIGAGYDVHWYQQLPGTAPKLLIYGNSNRPSGVPDRFSGSKSGTSASLAITGLQAEDETDYNCQSYDSSLSGYVFGTGTKVTVL', '243000 M⁻¹ s⁻¹');

Q: I'd like to know its kon. The binder in question is ABL-CD3-62 (antibody, V domains shown, Chimeric hybridoma mAb: human V, CH1, upper hinge; mouse middle hinge, CH2, CH3) VH: EVQLVESGGGLVKPGGSLRLSCAASGFTFSSYSMNWVRQAPGKGLEWVSSISRSSGYIFYADSVKGRFTISRDNAKNSLYLQMNSLRAEDTAVYYCVRERVGAGFDYWGQGTLVTVSS VL: NFMLTQPHSVSESPGKTVAISCTRSSGSIASNYVQWYQQRPGSSPTAVIYEDNQRPSGVPDRFSGSIDSSSNSAFLTISGLKTEDEADYYCQSYDSSNRVFGGGTKLTVL
Result: 164000 M⁻¹ s⁻¹

Q: Queued: ABL-CD3-63 (antibody, V domains shown, Chimeric hybridoma mAb: human V, CH1, upper hinge; mouse middle hinge, CH2, CH3) VH: QVQLQESGPGLVKPSETLSLTCTVSGGSISSYYWSWIRQPAGKGLEWIGRIYTSGSTKYNPSLKSRVTMSVDTSKNQFSLKLISVTAADTAVYFCARERIRDLYFDYWGQGTLVTVSS VL: NFMLTQPHSVSESPGKTVTISCTRTSGSIASNYVQWYQQRPGSSPTTVIYEDNQRPSGVPDRFSGSIDSSSNSASLTISGLKTEDEAAYYCQSYDRSNRVFGGGTKLTVL
Result: 202000 M⁻¹ s⁻¹

Q: Queued: ABL-CD3-60 (antibody, V domains shown, Chimeric hybridoma mAb: human V, CH1, upper hinge; mouse middle hinge, CH2, CH3) VH: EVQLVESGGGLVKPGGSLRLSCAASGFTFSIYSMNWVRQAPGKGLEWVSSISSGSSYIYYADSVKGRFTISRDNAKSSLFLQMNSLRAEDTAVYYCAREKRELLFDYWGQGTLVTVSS VL: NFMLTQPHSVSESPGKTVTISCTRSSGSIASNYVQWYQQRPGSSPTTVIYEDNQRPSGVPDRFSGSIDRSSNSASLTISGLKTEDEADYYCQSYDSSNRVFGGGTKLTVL
Result: 642000 M⁻¹ s⁻¹

Q: Queued: ABL-CD3-49 (antibody, V domains shown, Chimeric hybridoma mAb: human V, CH1, upper hinge; mouse middle hinge, CH2, CH3) VH: EVQLVESGGGLVKPGGSLRLSCSASGFTFSTYTMNWVRQAPGKGLEWVSSISKSSSYIYYTDSVKGRFTISRDNAKNSLYLQMNSLRAEDTAVYYCARERRTLAFDIWGQGTMVTVSS VL: NFMLTQPHSVSESPGKTVTISCTRSSGSIASNYVQWYQQRPGSSPTTVIYEDNQRSSGVPDRFSGSIDSSSNSASLTISGLKTEDEADYYCQCYDRSNRVFGGGTKLTVL
Result: 223000 M⁻¹ s⁻¹

Q: Queued: ABL-CD3-51 (antibody, V domains shown, Chimeric hybridoma mAb: human V, CH1, upper hinge; mouse middle hinge, CH2, CH3) VH: EVQLVESGGGLVKPGGSLRLSCAASGFTFSSYSMNWVRQAPGKGLEWVSSISRSSSYIYYADSVKGRFTISRDNAKNSLYLQMNSLRAEDTAVYYCARERWELLYFDYWGQGTLVTVSS VL: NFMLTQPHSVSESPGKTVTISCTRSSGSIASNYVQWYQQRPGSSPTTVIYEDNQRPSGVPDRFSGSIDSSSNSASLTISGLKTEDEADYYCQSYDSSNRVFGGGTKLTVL
Result: 699000 M⁻¹ s⁻¹

Q: Queued: ABL-CD3-34 (antibody, V domains shown, Chimeric hybridoma mAb: human V, CH1, upper hinge; mouse middle hinge, CH2, CH3) VH: EVHLVESGGGLVKPGGSLRLSCAASGFTFSRYSMNWVRQAPGKGLEWVSSISRSSSYIYYADSVKGRFTISRDNAKNSLYLQMNSLRAEDTAVYYCAREPRTLGMDYWGQGILVTVSS VL: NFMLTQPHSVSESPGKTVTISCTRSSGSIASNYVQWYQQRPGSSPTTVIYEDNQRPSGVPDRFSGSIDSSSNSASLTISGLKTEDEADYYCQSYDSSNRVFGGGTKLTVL
Result: 199000 M⁻¹ s⁻¹

Q: Queued: ABL-CD3-52 (antibody, V domains shown, Chimeric hybridoma mAb: human V, CH1, upper hinge; mouse middle hinge, CH2, CH3) VH: EVQLVESGGGLVKPGGSLRLSCAASGFTFSYYSMNWVRQAPGKGLEWVSSISRSTTYIYYADSVKGRFTISRDNAKNSLYLQMNSLRAEDTAVYYCARDGKGAIFLDYWGQGTLVTVSS VL: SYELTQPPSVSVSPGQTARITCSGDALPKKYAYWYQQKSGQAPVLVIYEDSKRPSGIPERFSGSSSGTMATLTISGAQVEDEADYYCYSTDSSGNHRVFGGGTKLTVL
Result: 495000 M⁻¹ s⁻¹

Q: Queued: ABL-CD3-46 (antibody, V domains shown, Chimeric hybridoma mAb: human V, CH1, upper hinge; mouse middle hinge, CH2, CH3) VH: EVQLVESGGGLVKPGGSLRLSCSASGFTFSTYTMNWVRQAPGKGLDWVSSISKSSTYIYYADSVKGRFTISRDNAKNSLYLQMNSLRAEDTAVYYCARERRTLAFDIWGQGTMVTVSS VL: NFMLTQPHSVSESPGKTVTISCTRSSGSIASNYVQWYQQRPGSSPTTVIYEDNQRPSGVPDRFSGSIDSSSNSASLTISGLKTEDEADYYCQCYDRSNRVFGGGTKLTVL
Result: 204000 M⁻¹ s⁻¹

Q: Queued: ABL-CD3-43 (antibody, V domains shown, Chimeric hybridoma mAb: human V, CH1, upper hinge; mouse middle hinge, CH2, CH3) VH: EVQLVQSGAEVKKPGESLKISCKGSEYSFTTYWIAWVRQMPGKGLEWMGIIYPGDSDTTYSPSFQGQVTISADKSISIAFLQWSSLKASDTAMYYCARQGELDAFDIWGQGTMVTVSS VL: QSALTQPASVSGSPGQSITISCTGTSSDVGSYNLVSWYQQHPGKAPKLMIYEDIRRPSGVSNRFSASKSGDTASLTISGLQAEDEADYYCCSYAGSTTFAIFGGGTKLTVL
Result: 150000 M⁻¹ s⁻¹

These entries and their values trace back to patent US20260167721A1.
